experiment: qHTS RealTime-Glo MT Cell Viability Assay in HepG2 cells - 8 hour (AID 1224873); details: RealTime-Glo luminescence; series mostly up to 76.8 µM; note: nearly all actives have a fitted effect of over 55% in size
Results filed as inconclusive are left out. The source made the active and inactive calls. Calls come from the whole dose curve; as a rule, active = well fitted cell-killing curve with a large enough effect in the repeat runs; inconclusive = weak or mixed curves; inactive = flat fitted curve, though single readings scatter.
Entry note: the call must match one of TRUE = active, FALSE = inactive

CC1(C)CCC[C@]2(C)[C@H]3CCO[C@]3(C)CC[C@@H]12 : FALSE
O=C(O)CCN(C1(C(=O)NO)CCCC1)S(=O)(=O)c1ccc(Oc2ccc(F)cc2)cc1 : FALSE
Nc1nc(-c2ccccc2)cs1 : FALSE
CCCCCCCCCCOC(=O)c1ccccc1C(=O)OCCCCCCCC : FALSE
OC12N=C(c3ccccc3)SC1Cc1cc(Cl)ccc12 (stereo unspecified) : FALSE

IN: Short answer needed: outcome of this test for `CCN(CC)C(=O)c1cc(S(=O)(=O)Cc2ccccc2)c(N2CCC(c3ccccc3)CC2)cc1N(CC)CCN(C)C` ?
OUT: TRUE

* * *

experiment: qHTS assay to identify small molecule agonists of the vitamin D receptor (VDR) signaling pathway - cell viability counter screen (AID 743224); settings: VDR-bla HEK293T viability, CellTiter-Glo luminescence, 16 h; series mostly up to 62.6 µM; note: nearly all actives have a fitted effect of over 50% in size
Inconclusive results are not listed. Active and inactive are the calls of the source. Calls come from the whole dose curve; as a rule, active = well fitted cell-killing curve with a large enough effect in the repeat runs; inconclusive = weak or mixed curves, or effect the other way; inactive = no such curve, though single readings can be large or run the other way.
Entry note: the call must match one of True (active), False (inactive)

For orientation, consider the following solved cases.
C/C=C/C=C/COC(=O)C(C)C : False
Nc1ccc(Oc2ccc(Cl)cc2)cc1 : False
C#Cc1ccc(-c2ccccc2F)cc1 : False
Cc1cccc2cccnc12 : False
Clc1nnc(Cl)c2ccccc12 : False
CC(C)CCOC(=O)/C=C/c1ccccc1 : False

IN: Short answer needed: outcome of this test for `Cl[Si](Cl)(c1ccccc1)c1ccccc1` ?
OUT: False

IN: Short answer needed: outcome of this test for `COc1cc(/C=C/c2ccccc2)oc(=O)c1` ?
OUT: False

IN: Short answer needed: outcome of this test for `CC(C)Cn1cnc2c(N)nc3ccccc3c21` ?
OUT: False

IN: Short answer needed: outcome of this test for `CC1(C)CCC[C@]2(C)[C@H]3CCO[C@]3(C)CC[C@@H]12` ?
OUT: False

IN: Short answer needed: outcome of this test for `Cc1nc(-c2ccc(Cl)cc2)oc1COC(C)(C)C(=O)O` ?
OUT: False

IN: Short answer needed: outcome of this test for `OC[C@@H](O)[C@@H](O)CO` ?
OUT: False

IN: Short answer needed: outcome of this test for `Nc1ccc(C(=O)O)c(O)c1` ?
OUT: False

IN: Short answer needed: outcome of this test for `CC[N+](CC)(CC)CCOC(=O)C(C1CCCC1)C1CCCC1` ?
OUT: False

IN: Short answer needed: outcome of this test for `O=S(=O)(O)c1ccccc1/C=C/c1ccc(-c2ccc(/C=C/c3ccccc3S(=O)(=O)O)cc2)cc1` ?
OUT: False

IN: Short answer needed: outcome of this test for CCOC(=O)NNc1ccc(N(CC)CC(C)O)nn1 (centres undefined) ?
OUT: False

IN: Short answer needed: outcome of this test for `COc1cccc2c1C(=O)c1c(O)c3c(c(O)c1C2=O)C[C@@](O)(C(C)=O)C[C@@H]3O[C@H]1C[C@H](N)[C@H](O)[C@H](C)O1` ?
OUT: True

IN: Short answer needed: outcome of this test for `Nc1ccc(NCCO)c([N+](=O)[O-])c1` ?
OUT: False

IN: Short answer needed: outcome of this test for `CN(C)C(=O)COC(=O)Cc1ccc(OC(=O)c2ccc(N=C(N)N)cc2)cc1` ?
OUT: False
